Molecular target: 3_S2m-23fl RNA hairpin
Test: fluorescence intensity binding assay
Set-up: species or system SARS-CoV-2
Conditions: 0 mM NaCl, pH 6.6, 25 °C; read-out: Kd
assay-metric: Kd

[[record]]
molecular_string = "CC(C)CCN1CCC(CNc2nc3ccccc3c(=O)[nH]2)CC1"
value_reported = "26.7 µM"


Attention now shifts to the item below.
Exercise: // returns reported Kd for input NCCCc1cn(C(c2ccccc2)(c2ccccc2)c2ccccc2)cn1
Key: 19.3 µM

* * *

Test system: 293T-ACE2 cells
Conditions: read-out: SARS-CoV-2 CC50, uninfected, MTT
assay-metric: CC50

Exercise: Look up CC50: N=c1c(S(=O)(=O)c2ccc(Cl)cc2)cc2c(=O)n3ccccc3nc2n1C1CCCCC1
Key: > 20 µM
